This collection of values is drawn from paper PMC4447598.

experiment summary: Chronic
Format: in vivo, beagle dogs
test conditions: both, beagle, dog, in vivo, po
value type: NOAEL at 273 days

stdin: Item under review: CN1CCN(CCOc2cc(OC3CCOCC3)c3c(Nc4c(Cl)ccc5c4OCO5)ncnc3c2)CC1 [AZD0530] . Reported NOAEL at 273 days?
stdout: > 5 mg/kg/day
